Tested on: Plasmodium vinckei petteri
test.protocol: Antimalarial activity against Plasmodium vinckei petteri 279BY infected in po dosed Swiss mouse assessed as reduction in parasitemia administered QD for 4 days measured on day 5
Type: functional
Recorded ED50 for the following compounds

Record excerpt, results attached:
>  <compound>
CCN(CC)CCCC(C)Nc1ccnc2cc(Cl)ccc12 (configuration not stated)

>  <target.under.test>
Plasmodium vinckei petteri

>  <ED50>
3.4 mg/kg

$$$$
>  <compound>
CCSS/C(CCOP1(=O)OCc2ccccc2O1)=C(/C)N(C=O)CCCCCCCCCCCCN(C=O)/C(C)=C(/CCOP1(=O)OCc2ccccc2O1)SSCC (configuration not stated)

>  <target.under.test>
Plasmodium vinckei petteri

>  <ED50>
> 90 mg/kg

$$$$
>  <compound>
CSS/C(CCOC(=O)[C@@H](N)C(C)C)=C(/C)N(C=O)CCCCCCCCCCCCN(C=O)/C(C)=C(/CCOC(=O)[C@@H](N)C(C)C)SSC.Cl

>  <target.under.test>
Plasmodium vinckei petteri

>  <ED50>
58 mg/kg

$$$$
>  <compound>
CCOP(=O)(OCC)OCC/C(SSCC)=C(\C)N(C=O)CCCCCCCCCCCCN(C=O)/C(C)=C(/CCOP(=O)(OCC)OCC)SSCC

>  <target.under.test>
Plasmodium vinckei petteri

>  <ED50>
> 90 mg/kg

$$$$
>  <compound>
CSS/C(CCOC(=O)[C@@H](N)CCCCN)=C(/C)N(C=O)CCCCCCCCCCCCN(C=O)/C(C)=C(/CCOC(=O)[C@@H](N)CCCCN)SSC.Cl.Cl

>  <target.under.test>
Plasmodium vinckei petteri

>  <ED50>
44 mg/kg

$$$$
>  <compound>
C/C(=C(\CCOP(=O)([O-])[O-])SSCc1ccccc1)N(C=O)CCCCCCCCCCCCN(C=O)/C(C)=C(/CCOP(=O)([O-])[O-])SSCc1ccccc1.[Li+].[Li+].[Li+].[Li+]

>  <target.under.test>
Plasmodium vinckei petteri

>  <ED50>
> 90 mg/kg

$$$$

Next up:
Incoming: Lab request: please report ED50 under test system Plasmodium vinckei petteri for C/C(=C(\CCO)SSCc1ccccc1)N(C=O)CCCCCCCCCCCCN(C=O)/C(C)=C(/CCO)SSCc1ccccc1
Outgoing: 80 mg/kg
